These entries and their values trace back to patent US20090105305A1.

target: human Fatty Acid Synthase (Homo sapiens, UniProt P49327); construct: made in house; assay: Human FAS enzyme assay (decrease in NADPH fluorescence); format: biochemical; conditions: % inhibition at a concentration of 100 micromolar
Sequence (P49327 whole entry): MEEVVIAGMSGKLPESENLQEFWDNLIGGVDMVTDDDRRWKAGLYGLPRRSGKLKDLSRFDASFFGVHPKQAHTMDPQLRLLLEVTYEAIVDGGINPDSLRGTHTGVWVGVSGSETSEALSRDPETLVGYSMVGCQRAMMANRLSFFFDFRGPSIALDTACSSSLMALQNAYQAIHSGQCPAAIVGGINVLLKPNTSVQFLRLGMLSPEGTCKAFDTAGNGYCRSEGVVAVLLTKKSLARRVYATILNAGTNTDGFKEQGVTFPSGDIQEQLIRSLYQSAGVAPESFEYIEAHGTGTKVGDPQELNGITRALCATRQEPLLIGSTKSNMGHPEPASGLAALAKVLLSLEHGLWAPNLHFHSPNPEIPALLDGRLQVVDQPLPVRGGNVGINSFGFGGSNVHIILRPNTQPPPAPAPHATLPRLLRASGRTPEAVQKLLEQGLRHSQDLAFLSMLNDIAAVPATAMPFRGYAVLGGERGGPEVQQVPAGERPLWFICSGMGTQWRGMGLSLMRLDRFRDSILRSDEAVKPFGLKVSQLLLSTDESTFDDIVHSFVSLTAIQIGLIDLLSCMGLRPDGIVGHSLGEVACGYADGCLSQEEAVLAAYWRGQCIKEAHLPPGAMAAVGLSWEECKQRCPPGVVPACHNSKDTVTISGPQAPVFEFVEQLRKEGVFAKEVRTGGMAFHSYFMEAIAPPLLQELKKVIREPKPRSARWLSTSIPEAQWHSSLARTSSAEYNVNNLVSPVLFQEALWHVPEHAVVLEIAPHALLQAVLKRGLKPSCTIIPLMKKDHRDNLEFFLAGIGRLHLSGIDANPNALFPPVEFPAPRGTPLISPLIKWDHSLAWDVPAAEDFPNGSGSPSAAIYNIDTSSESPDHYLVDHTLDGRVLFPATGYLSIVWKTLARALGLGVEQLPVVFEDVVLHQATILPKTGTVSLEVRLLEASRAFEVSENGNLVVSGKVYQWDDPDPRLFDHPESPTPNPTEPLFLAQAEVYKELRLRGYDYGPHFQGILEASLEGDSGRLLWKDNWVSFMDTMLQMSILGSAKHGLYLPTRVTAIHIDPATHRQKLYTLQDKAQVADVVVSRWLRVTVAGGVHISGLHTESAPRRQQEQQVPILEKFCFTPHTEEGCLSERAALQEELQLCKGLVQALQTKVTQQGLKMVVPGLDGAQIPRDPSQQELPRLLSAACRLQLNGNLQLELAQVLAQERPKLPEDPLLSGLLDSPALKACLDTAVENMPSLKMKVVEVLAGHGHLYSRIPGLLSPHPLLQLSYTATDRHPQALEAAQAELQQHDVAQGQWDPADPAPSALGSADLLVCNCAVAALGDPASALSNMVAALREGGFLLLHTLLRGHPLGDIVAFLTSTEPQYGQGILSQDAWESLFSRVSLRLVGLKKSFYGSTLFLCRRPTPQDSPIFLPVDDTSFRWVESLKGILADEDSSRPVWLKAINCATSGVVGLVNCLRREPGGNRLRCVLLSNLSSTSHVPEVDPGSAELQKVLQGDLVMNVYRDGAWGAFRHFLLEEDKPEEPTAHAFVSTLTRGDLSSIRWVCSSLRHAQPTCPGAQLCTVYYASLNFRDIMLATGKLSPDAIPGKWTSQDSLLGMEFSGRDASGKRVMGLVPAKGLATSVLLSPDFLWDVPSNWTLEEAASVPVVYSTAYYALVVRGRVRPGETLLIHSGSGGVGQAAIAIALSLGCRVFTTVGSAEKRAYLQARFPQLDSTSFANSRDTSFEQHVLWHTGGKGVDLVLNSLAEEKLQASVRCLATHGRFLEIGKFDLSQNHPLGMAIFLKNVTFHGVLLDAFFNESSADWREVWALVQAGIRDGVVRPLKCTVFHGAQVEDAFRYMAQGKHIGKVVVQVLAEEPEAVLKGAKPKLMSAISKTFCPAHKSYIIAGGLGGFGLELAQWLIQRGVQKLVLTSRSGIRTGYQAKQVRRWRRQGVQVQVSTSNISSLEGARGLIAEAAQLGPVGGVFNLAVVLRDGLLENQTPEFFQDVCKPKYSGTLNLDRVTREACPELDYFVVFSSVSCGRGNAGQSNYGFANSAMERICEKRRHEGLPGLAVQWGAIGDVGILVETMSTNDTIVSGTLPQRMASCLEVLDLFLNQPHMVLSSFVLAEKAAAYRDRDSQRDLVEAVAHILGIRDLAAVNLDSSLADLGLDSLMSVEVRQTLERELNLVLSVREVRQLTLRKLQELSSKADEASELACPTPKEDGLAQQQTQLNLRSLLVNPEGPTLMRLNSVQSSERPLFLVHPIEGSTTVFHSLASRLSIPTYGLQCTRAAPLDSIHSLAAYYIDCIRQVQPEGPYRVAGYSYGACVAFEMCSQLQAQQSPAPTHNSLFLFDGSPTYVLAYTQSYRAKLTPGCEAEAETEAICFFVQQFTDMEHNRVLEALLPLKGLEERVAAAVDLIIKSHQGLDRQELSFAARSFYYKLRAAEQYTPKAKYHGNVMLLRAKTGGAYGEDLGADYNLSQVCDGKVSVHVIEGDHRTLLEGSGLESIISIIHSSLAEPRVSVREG
Below: a set of entries, each annotated with reported inhibition at 100 µM.
quantity_kind: inhibition at 100 µM (%)

| chem_smiles | quantity_kind | measurement_units | reported |
| --- | --- | --- | --- |
| Cc1ccc(C(=O)N2CCC(c3ccc(CO)cc3)CC2)cc1NS(C)(=O)=O | inhibition at 100 µM | % | 76 |
| N#Cc1ccc(C2CCN(C(=O)c3ccc(C#N)c(NS(=O)(=O)Cc4ccccc4)c3)CC2)cc1 | inhibition at 100 µM | % | 96 |
| COC(=O)NCc1ccc(C2CCN(C(=O)c3ccc(C)c(NS(C)(=O)=O)c3)CC2)cc1 | inhibition at 100 µM | % | 89.1 |
| Cc1ccc(C(=O)N2CCC(c3ccc(C#N)cc3)CC2)cc1NS(=O)(=O)c1c(C)nn(C)c1Cl | inhibition at 100 µM | % | 90 |
| Cc1ccc(C(=O)N2CCC(c3ccc(C#N)cc3)CC2)cc1NS(=O)(=O)c1cnc(C)n1C | inhibition at 100 µM | % | 85 |
| Cc1ccc(C(=O)N2CCC(c3ccc(C#N)cc3)CC2)cc1NS(=O)(=O)CC(=O)N1CCOCC1 | inhibition at 100 µM | % | 89 |
| Cc1ccc(C(=O)N2CCC(c3ccc(C#N)cc3)CC2)cc1NS(=O)(=O)CCCNC(C)C | inhibition at 100 µM | % | 94 |
| CCc1ccc(C(=O)N2CCC(c3ccc(C#N)cc3)CC2)cc1NS(C)(=O)=O | inhibition at 100 µM | % | 85 |
| CCS(=O)(=O)N1CCC(S(=O)(=O)Nc2cc(C(=O)N3CCC(c4ccc(C#N)cc4)CC3)ccc2C)CC1 | inhibition at 100 µM | % | 98 |
